# System: OVCAR-3 ovarian
# Test method notes: NCI tumour cell line growth inhibition, 48 h
Parameter: TGI. Scope: all listed entries.

- COc1cc2c(cc1OC)C1C(O)C(OC)C=C3CC[N+](C)(C2)C31 (stereo unspecified): > 100 µM

Shifting focus to the compound that follows.
## Input Dear colleague, please send me the reported TGI for `CC(C)CNc1nc(N)[nH]c(=O)c1NC=O` when you can.
## Output > 100 µM

----------
# Test system: SF-539 CNS
# Test method notes: NCI tumour cell line growth inhibition, 48 h
Property name: TGI

Here's what some known entries look like.
- Cn1c(=O)c2c(nc(C[N+]3([O-])CCOCC3)n2C)n(C)c1=O: > 100 µM
- O=C(O)c1ccc(N=Nc2cc(S(=O)(=O)O)c3cccnc3c2O)cc1: > 100 µM

Shifting focus to the molecule that follows.
## Input Given O=C1NC(=O)C2(CCC(O)C2)c2cc[n+]([O-])cc21 (stereo not drawn) , report its TGI on SF-539 CNS.
## Output > 100 µM
